Values compiled from patent US9029337B2.

I'd be grateful if you could share measured percent inhibition of Factor 7 for these entries.
Test system: human Factor 7 mRNA
assay notes: Dose-dependent antisense inhibition of human Factor 7 in HepB3 cells, lipofectin
Format: cell-based
condition summary: Table 3, 6.25 nM, approximately 16 hours
Strand notation (5' to 3'): a small letter for the sugar, then the base; units joined by * are phosphorothioate-linked, units joined directly phosphodiester-linked; [ ] holds rarer units or linkages, { } end groups; capitals alone tell only the bases. e = 2'-O-(2-methoxyethyl) (MOE); [5mC] = 5-methylcytosine; d = 2'-deoxy (DNA)
Expressed in %, but write only the number.

For the substance 407900 (antisense e[5mC]*e[5mC]*e[5mC]*e[5mC]*eA*d[5mC]*dA*dA*dT*dT*d[5mC]*dG*dG*d[5mC]*d[5mC]*eT*eT*eG*eG*eG) [compound 407900] , give its reported percent inhibition of Factor 7.
58

For the substance 407935 (antisense eA*eT*eG*e[5mC]*eA*dT*dG*dG*dT*dG*dA*dT*dG*d[5mC]*dT*eT*e[5mC]*eT*eG*eA) [compound 407935] , give its reported percent inhibition of Factor 7.
76

For the substance 407939 (antisense eT*eG*e[5mC]*eA*eG*d[5mC]*d[5mC]*d[5mC]*dG*dG*d[5mC]*dA*d[5mC]*d[5mC]*d[5mC]*eA*eG*e[5mC]*eG*eA) [compound 407939] , give its reported percent inhibition of Factor 7.
79

For the substance 407910 (antisense eA*eG*eT*e[5mC]*e[5mC]*dT*dT*dG*d[5mC]*dT*dG*d[5mC]*d[5mC]*dA*dT*e[5mC]*e[5mC]*eG*eA*eG) [compound 407910] , give its reported percent inhibition of Factor 7.
44
